Let's go through some pKi measurements on xanthine oxidase (XO) (Bos taurus) together.
Sequence (P80457 whole entry): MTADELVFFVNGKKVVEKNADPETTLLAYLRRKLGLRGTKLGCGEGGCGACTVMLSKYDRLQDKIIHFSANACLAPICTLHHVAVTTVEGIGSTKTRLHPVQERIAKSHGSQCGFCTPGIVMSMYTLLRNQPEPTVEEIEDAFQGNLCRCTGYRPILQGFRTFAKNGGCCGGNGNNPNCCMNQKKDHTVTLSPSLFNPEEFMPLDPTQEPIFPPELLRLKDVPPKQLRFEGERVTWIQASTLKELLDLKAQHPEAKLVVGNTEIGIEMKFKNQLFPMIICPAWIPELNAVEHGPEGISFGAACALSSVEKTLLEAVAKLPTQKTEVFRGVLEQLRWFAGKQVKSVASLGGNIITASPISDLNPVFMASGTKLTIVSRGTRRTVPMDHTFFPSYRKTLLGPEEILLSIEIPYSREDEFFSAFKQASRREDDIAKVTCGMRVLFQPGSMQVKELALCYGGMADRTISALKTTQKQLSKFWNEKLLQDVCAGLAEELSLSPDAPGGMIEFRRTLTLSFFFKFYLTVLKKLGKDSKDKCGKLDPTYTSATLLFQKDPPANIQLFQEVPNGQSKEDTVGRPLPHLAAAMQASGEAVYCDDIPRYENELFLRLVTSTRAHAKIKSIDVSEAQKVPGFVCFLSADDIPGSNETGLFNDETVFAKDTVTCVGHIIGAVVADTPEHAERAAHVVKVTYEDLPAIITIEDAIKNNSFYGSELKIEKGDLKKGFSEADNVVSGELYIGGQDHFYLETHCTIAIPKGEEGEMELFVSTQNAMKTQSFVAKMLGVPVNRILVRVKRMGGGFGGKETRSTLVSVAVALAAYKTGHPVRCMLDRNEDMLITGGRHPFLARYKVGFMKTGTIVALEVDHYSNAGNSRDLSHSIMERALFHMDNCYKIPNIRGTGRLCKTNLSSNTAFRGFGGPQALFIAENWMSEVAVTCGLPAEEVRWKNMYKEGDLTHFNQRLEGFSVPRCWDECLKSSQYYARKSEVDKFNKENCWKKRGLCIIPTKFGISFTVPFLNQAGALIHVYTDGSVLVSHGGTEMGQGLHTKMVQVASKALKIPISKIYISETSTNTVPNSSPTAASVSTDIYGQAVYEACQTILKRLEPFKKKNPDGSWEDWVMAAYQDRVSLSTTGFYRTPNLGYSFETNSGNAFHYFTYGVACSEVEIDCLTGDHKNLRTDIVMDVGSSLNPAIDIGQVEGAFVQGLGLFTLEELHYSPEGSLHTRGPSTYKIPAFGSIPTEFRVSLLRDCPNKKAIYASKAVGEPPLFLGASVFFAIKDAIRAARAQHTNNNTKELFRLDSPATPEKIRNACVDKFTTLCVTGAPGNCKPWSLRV
pKi: −log10 of the molar value.
Quantity measured: pKi

Compound	pKi
CCCC(=O)c1c(O)c(C)c(O)c(CC2=C(O)C(C)(C)C(O)=C(C(C)=O)C2=O)c1O [Compound 2, flavaspidic acid AB]	4.93
CCC(=O)c1c(O)c(C)c(O)c(CC2=C(O)C(C)(C)C(O)=C(C(C)=O)C2=O)c1O [Compound 1, flavaspidic acid AP]	5.11
